- experimentSummary: Pharmacokinetics (bioavailability) of formulations dosed to fasted Rhesus monkeys
- Format: in vivo
- testConditions: rhesus monkey, blood, po, 1 mg/kg, HME tablet formulation with 10% Compound II, 35% copovidone, 5% Vitamin E TPGS, single dose 1 mg/kg, 3 fasted Rhesus monkeys
valueKind: Tmax (h)
Hi! Could you send only the number? It should be in h, unit omitted.

## Task What does the record list as Tmax for COc1cc(F)c(C(C)C)cc1-c1ccc(C(F)(F)F)cc1CN1C(=O)O[C@H](c2cc(C(F)(F)F)cc(C(F)(F)F)c2)[C@@H]1C ?
## Result 5.3

---

- experimentSummary: Pharmacokinetics (bioavailability) of formulations dosed to fasted Rhesus monkeys
- Format: in vivo
- testConditions: rhesus monkey, blood, po, 1 mg/kg, spray dried polymer formulation in capsules (8.8% Compound II, 35.2% HPMCAS-LF), single dose 1 mg/kg, 3 fasted Rhesus monkeys, 24 hours
- Description: Examples of preparations of pharmaceutical formulations are provided below. Bioavailability is determined in vivo by dosing trial formulations and/or other formulations of the active pharmaceutical ingredient (API) to Rhesus monkeys (normally three monkeys per trial) at a dose of 1 mg/kg of the API and then measuring the amount of API in the serum or blood as a function of time. […]
valueKind: Tmax (h)
Hi! Could you send only the number? It should be in h, unit omitted.

## Task What does the record list as Tmax for COc1cc(F)c(C(C)C)cc1-c1ccc(C(F)(F)F)cc1CN1C(=O)O[C@H](c2cc(C(F)(F)F)cc(C(F)(F)F)c2)[C@@H]1C ?
## Result 6.7
